Every entry's value here was drawn from patent US9969762B2.

System: Fusarium sambucinum
condition.label: 1 μmol/ml, compound in methanol, more than 10 days at 20° C.
Each entry below carries its reported Inhibition of the growth of the Fusarium sambucinum fungi.
endpoint.label: Inhibition of the growth of the Fusarium sambucinum fungi (%)

{"columns": ["compound", "unit.abbrev", "readout.value"],
 "data": [
  ["CCCCNC1OC(C)[C@H](O)C(O)C1O (some centres unmarked)", "%", 0],
  ["CCCCCCCCCCCCNCC(O)C(O)C(O)C(C)O (centres unmarked)", "%", 100],
  ["CC1OC(NCCCCCNC2OC(C)[C@H](O)C(O)C2O)C(O)C(O)[C@H]1O (some centres unmarked)", "%", 12],
  ["CCCCCCCCCCCCNCC(O)C(O)C(O)C(O)CO (centres unmarked) [compound IIIc]", "%", 98],
  ["CCCCCCCCCCCCNC1OC(CO)C(O)C(O)C1O (centres unmarked)", "%", 96]
]}

* * *

Items are presented alongside their recorded Inhibition of the growth of the Fusarium roseum fungi.
System: Fusarium roseum
condition.label: 1 μmol/ml, compound in methanol, more than 10 days at 20° C.
endpoint.label: Inhibition of the growth of the Fusarium roseum fungi

{"columns": ["compound", "tested.target", "readout.value"],
 "data": [
  ["CCCCCCCCCCCCNCC(O)C(O)C(O)C(C)O (stereo not drawn) [compound IIIa]", "Fusarium roseum", "100%"],
  ["CCCCCNC1OC(C)[C@H](O)C(O)C1O (stereo partly drawn) [compound Ic]", "Fusarium roseum", "0%"],
  ["CC1OC(NCCCCCNC2OC(C)[C@H](O)C(O)C2O)C(O)C(O)[C@H]1O (stereo partly drawn) [compound Ih]", "Fusarium roseum", "0%"],
  ["CCCCCCCCCCCCNCC(O)C(O)C(O)C(O)CO (stereo not drawn) [compound IIIb]", "Fusarium roseum", "100%"],
  ["CCCCNC1OC(C)[C@H](O)C(O)C1O (stereo partly drawn) [compound Ib]", "Fusarium roseum", "0%"],
  ["CC1OC(NCCCCCCCCCCCCN)C(O)C(O)C1O (stereo not drawn) [compound Ii]", "Fusarium roseum", "0%"]
]}

* * *

Tested on: Fusarium sambucinum
condition.label: 1 μmol/ml, compound in methanol, more than 10 days at 20° C.
endpoint.label: Inhibition of the growth of the Fusarium sambucinum fungi (%)

{"columns": ["molecule", "readout.value"],
 "data": [
  ["CC1OC(NCCCCCCCCCCCCN)C(O)C(O)C1O (stereo not shown) [compound Ii]", 28],
  ["CCCCCCCCCCCCNCC(O)C(O)C(O)C(O)CO (stereo not shown) [compound IIIb]", 96],
  ["CCCCCNC1OC(C)[C@H](O)C(O)C1O (stereo partly shown) [compound Ie]", 95],
  ["CCCCCNC1OC(C)[C@H](O)C(O)C1O (stereo partly shown) [compound Ic]", 10]
]}

* * *

Test system: Agrobacterium tumefaciens
test.protocol: Antibacterial activity (MIC and MBC) in TY medium
Assay type: cell-based
condition.label: 36 h of culture at 30° C., TY medium
Exam item: assign True to entries whose MIC is below 50 µg/mL and False to entries at or above 50 µg/mL. Note that a value of exactly 50 µg/mL receives False.

{"columns": ["compound", "tested.target", "label.value"],
 "data": [
  ["CCCCCCCCCCCCNCC(O)C(O)C(O)C(C)O (centres unmarked)", "Agrobacterium tumefaciens", "True"],
  ["CCCCCCCCCCCCNC1OC(CO)C(O)C(O)C1O (centres unmarked) [compound Ij]", "Agrobacterium tumefaciens", "True"],
  ["CC1OC(NCCCCCNC2OC(C)[C@H](O)C(O)C2O)C(O)C(O)[C@H]1O (some centres unmarked) [Ig]", "Agrobacterium tumefaciens", "False"],
  ["CCCCCCCCCCCCNCC(O)C(O)C(O)C(O)CO (centres unmarked) [compound IIIc]", "Agrobacterium tumefaciens", "False"],
  ["CC1OC(NCCCCCNC2OC(C)[C@H](O)C(O)C2O)C(O)C(O)[C@H]1O (some centres unmarked) [compound Ih]", "Agrobacterium tumefaciens", "False"],
  ["CCCCCNC1OC(C)[C@H](O)C(O)C1O (some centres unmarked) [compound Ie]", "Agrobacterium tumefaciens", "True"],
  ["CC(O)C(O)C(O)C(O)CNCCCCCCCCCCCCN (centres unmarked)", "Agrobacterium tumefaciens", "False"],
  ["CC1OC(NCCCCCCCCCCCCN)C(O)C(O)C1O (centres unmarked)", "Agrobacterium tumefaciens", "True"]
]}
